The origin of these recorded values is patent US7745441B1.

# systemUnderTest: sc-urokinase (Homo sapiens, UniProt P00749)
Where a name gives a salt, the structure may show the parent alone.
reportedEndpoint: Ki (nM)
Note: unit nM is implicit; provide only the numeric part.

Lab note: CCOC(=O)N1CCN(C(=O)C(Cc2cccc(C(=N)N)c2)NS(=O)(=O)c2c(C(C)C)cc(C(C)C)cc2C(C)C)CC1 (stereo not shown) gave Ki of 540

Lab note: CC(C)c1cc(C(C)C)c(S(=O)(=O)NC(Cc2cccc(C(=N)N)c2)C(=O)N2CCN(C(=O)OCc3ccccc3)CC2)c(C(C)C)c1 (stereo not shown) gave Ki of 1900

Lab note: CC(C)NC(=O)C1CCN(C(=O)C(Cc2cccc(C(=N)N)c2)NS(=O)(=O)c2c(C(C)C)cc(C(C)C)cc2C(C)C)CC1 (stereo not shown) gave Ki of 4200

Lab note: CCOC(=O)N1CCN(C(=O)[C@H](Cc2cccc(C(=N)N)c2)NS(=O)(=O)c2c(C(C)C)cc(C(C)C)cc2C(C)C)CC1 [hydrochloride] gave Ki of 490

Lab note: CC1CCN(C(=O)C(Cc2cccc(C(=N)N)c2)NS(=O)(=O)c2c(C(C)C)cc(C(C)C)cc2C(C)C)CC1 (stereo not shown) gave Ki of 2200

Lab note: CC(C)c1cc(C(C)C)c(S(=O)(=O)NC(Cc2cccc(C(=N)N)c2)C(=O)N2CCN(C(=O)N(C)C)CC2)c(C(C)C)c1 (stereo not shown) gave Ki of 2700

Lab note: CCOC(=O)C1CCN(C(=O)[C@H](Cc2cccc(C(=N)N)c2)NS(=O)(=O)c2ccc3ccccc3c2)CC1 gave Ki of 3300
